In this section we review reported Blood tissue concentration values for a set of molecules.
# Test system: B16/F1 tumor-bearing C57BL6 mice
# protocol_description: Tissue concentration of radioiodinated benzamides in the C57BL6-B16/F1 mouse model (organ distribution and tumor accumulation)
# Format: in vivo
# experimental_parameters: 1 hour after intravenous administration; n = 3

Some molecules with recorded Blood tissue concentration:
>>> result("CCN(CC)CCNC(=O)c1cc(I)c(NC(=O)c2ccc3c(c2)OCO3)cc1OC")
"1.46 % Injected Dose (ID)/g of Tissue"
>>> result("CCN(CC)CCNC(=O)c1cc(I)c(NC(=O)c2ccc(Cl)cc2)cc1OC")
"1.30 % Injected Dose (ID)/g of Tissue"
>>> result("CCN(CC)CCNC(=O)c1cc(I)c(NC(=O)c2ccc(OC)cc2)cc1OC")
"1.26 % Injected Dose (ID)/g of Tissue"
>>> result("CCN(CC)CCNC(=O)c1cc(I)c(NC(=O)c2ccccc2)cc1OC")
"1.06 % Injected Dose (ID)/g of Tissue"

Now turn to the next molecule.
Returns the measured Blood tissue concentration for the input molecule. Input: CCN(CC)CCNC(=O)c1cc(I)c(NC(=O)c2ccc(F)cc2)cc1OC 1.21 % Injected Dose (ID)/g of Tissue

Taken from patent US7850948B2.
